Listed here: items and their measured Phytotoxicity, Cotton.
Test system: Cotton
Test: Post-emergence treatment, phytotoxicity to cotton
Type: in vivo
Details: post-emergence (about 3 leaf stage), 1,000 g/ha, 4 weeks after spraying, scale 0 to 10 (0: no effects, 10: complete death)
Measurement Type: Phytotoxicity, Cotton

>>> recorded_measurement("CC1(COCc2c(F)cccc2Cl)CC(c2ccccc2)=NO1 (stereo not drawn) [Reference H]")
0
>>> recorded_measurement("CC1(COCc2ccccc2F)CC(c2ccccc2[N+](=O)[O-])=NO1 (stereo not drawn) [Reference A]")
0
>>> recorded_measurement("CC1(COCc2c(F)cccc2Cl)CC(c2ccccc2Cl)=NO1 (stereo not drawn) [Reference B]")
0
>>> recorded_measurement("Cc1ccccc1C1=NOC(C)(COCc2c(F)cccc2F)C1 (stereo not drawn) [Compound 1]")
2
>>> recorded_measurement("Cc1ccccc1C1=NOC(C)(COCc2ccccc2F)C1 (stereo not drawn) [Reference D]")
0
>>> recorded_measurement("CC1(COCc2c(F)cccc2F)CC(c2ccccc2Cl)=NO1 (stereo not drawn) [Compound 2]")
1
>>> recorded_measurement("CC1(COCc2c(F)cccc2F)CC(c2ccccc2F)=NO1 (stereo not drawn) [Compound 4]")
0
>>> recorded_measurement("Cc1ccccc1C1=NOC(C)(COCc2c(F)cccc2Cl)C1 (stereo not drawn) [Reference E]")
3
>>> recorded_measurement("CC1(COCc2c(F)cccc2F)CC(c2ccccc2C(F)(F)F)=NO1 (stereo not drawn) [Compound 5]")
0
>>> recorded_measurement("Cc1cccc(C2=NOC(C)(COCc3c(F)cccc3F)C2)c1 (stereo not drawn) [Reference F]")
0
>>> recorded_measurement("Cc1ccc(C2=NOC(C)(COCc3c(F)cccc3F)C2)cc1 (stereo not drawn) [Reference G]")
0
>>> recorded_measurement("Cc1ccccc1C1=NOC(C)(COCc2ccccc2)C1 (stereo not drawn) [Reference C]")
0

====

Tested on: Alopecurus myosuroides
Experiment: Post-emergence treatment, herbicidal efficacy on blackgrass
Format: in vivo
Conditions: post-emergence, 1,000 g/ha, 4 weeks after spraying, scale 0 to 10
Measurement Type: Herbicidal efficacy, Alopecurus myosuroides

>>> recorded_measurement("Cc1ccccc1C1=NOC(C)(COCc2c(F)cccc2Cl)C1 (stereo not drawn) [Reference E]")
4
>>> recorded_measurement("Cc1ccccc1C1=NOC(C)(COCc2ccccc2)C1 (stereo not drawn) [Reference C]")
5
>>> recorded_measurement("CC1(COCc2c(F)cccc2F)CC(c2ccccc2C(F)(F)F)=NO1 (stereo not drawn)")
9
>>> recorded_measurement("Cc1ccccc1C1=NOC(C)(COCc2c(F)cccc2F)C1 (stereo not drawn)")
9
>>> recorded_measurement("CC1(COCc2c(F)cccc2Cl)CC(c2ccccc2Cl)=NO1 (stereo not drawn) [Reference B]")
3
>>> recorded_measurement("CC1(COCc2c(F)cccc2F)CC(c2ccccc2Cl)=NO1 (stereo not drawn)")
9
>>> recorded_measurement("Cc1ccc(C2=NOC(C)(COCc3c(F)cccc3F)C2)cc1 (stereo not drawn) [Reference G]")
3
>>> recorded_measurement("Cc1ccccc1C1=NOC(C)(COCc2ccccc2F)C1 (stereo not drawn) [Reference D]")
4
>>> recorded_measurement("Cc1cccc(C2=NOC(C)(COCc3c(F)cccc3F)C2)c1 (stereo not drawn) [Reference F]")
4
>>> recorded_measurement("CC1(COCc2ccccc2F)CC(c2ccccc2[N+](=O)[O-])=NO1 (stereo not drawn) [Reference A]")
2
>>> recorded_measurement("CC1(COCc2c(F)cccc2F)CC(c2ccccc2F)=NO1 (stereo not drawn)")
10
>>> recorded_measurement("CC1(COCc2c(F)cccc2Cl)CC(c2ccccc2)=NO1 (stereo not drawn) [Reference H]")
0

====

Tested on: Rice
Assay: Post-emergence treatment, phytotoxicity to rice
Assay type: in vivo
Conditions: post-emergence (about 3 leaf stage), 1,000 g/ha, 4 weeks after spraying, scale 0 to 10 (0: no effects, 10: complete death)
Collected Phytotoxicity, Rice values appear next to each entry.
Measurement Type: Phytotoxicity, Rice

>>> recorded_measurement("Cc1ccccc1C1=NOC(C)(COCc2c(F)cccc2F)C1 (stereo not drawn)")
0
>>> recorded_measurement("CC1(COCc2c(F)cccc2Cl)CC(c2ccccc2)=NO1 (stereo not drawn) [Reference H]")
0
>>> recorded_measurement("CC1(COCc2c(F)cccc2F)CC(c2ccccc2Cl)=NO1 (stereo not drawn)")
1
>>> recorded_measurement("Cc1ccccc1C1=NOC(C)(COCc2ccccc2)C1 (stereo not drawn) [Reference C]")
0
>>> recorded_measurement("CC1(COCc2ccccc2F)CC(c2ccccc2[N+](=O)[O-])=NO1 (stereo not drawn) [Reference A]")
0
>>> recorded_measurement("CC1(COCc2c(F)cccc2F)CC(c2ccccc2F)=NO1 (stereo not drawn)")
2
>>> recorded_measurement("Cc1ccccc1C1=NOC(C)(COCc2c(F)cccc2Cl)C1 (stereo not drawn) [Reference E]")
0
>>> recorded_measurement("Cc1ccc(C2=NOC(C)(COCc3c(F)cccc3F)C2)cc1 (stereo not drawn) [Reference G]")
0
>>> recorded_measurement("Cc1cccc(C2=NOC(C)(COCc3c(F)cccc3F)C2)c1 (stereo not drawn) [Reference F]")
0
>>> recorded_measurement("Cc1ccccc1C1=NOC(C)(COCc2ccccc2F)C1 (stereo not drawn) [Reference D]")
0
>>> recorded_measurement("CC1(COCc2c(F)cccc2F)CC(c2ccccc2C(F)(F)F)=NO1 (stereo not drawn)")
0
>>> recorded_measurement("CC1(COCc2c(F)cccc2Cl)CC(c2ccccc2Cl)=NO1 (stereo not drawn) [Reference B]")
0

====

Tested on: Soybean
Test: Pre-emergence treatment, phytotoxicity to soybean
Format: in vivo
Settings: 500 g/ha, 4 weeks after spraying, scale 0 to 10 (0: no effects, 10: complete death)
Measurement Type: Phytotoxicity, Soybean

>>> recorded_measurement("CC1(COCc2c(F)cccc2F)CC(c2ccccc2Br)=NO1 (stereo not drawn)")
0
>>> recorded_measurement("CC1(COCc2c(F)cccc2Cl)CC(c2ccccc2)=NO1 (stereo not drawn) [Reference H]")
0
>>> recorded_measurement("Cc1ccccc1C1=NOC(C)(COCc2c(F)cccc2F)C1 (stereo not drawn)")
0

====

Test system: Digitaria sanguinalis
Assay: Pre-emergence treatment, herbicidal efficacy on large crabgrass
Format: in vivo
Settings: 125 g/ha, 4 weeks after spraying, scale 0 to 10
Description: A rectangular plastic pot having a surface area of 300 cm^2 was filled with sandy loam soil and mixed bed soil which were mixed at a ratio of 1:1, and then, barnyardrass (Echinochloa crusgalli), large crabgrass (Digitaria sanguinalis), blackgrass (Alopecurus myosuroides), and annual bluegrass (Poa annua), which are grass weeds, were seeded thereto. In a pot that was prepared as described above, seeds of corn, soybean, cotton, wheat, and rice were seeded. […]
Measurement Type: Herbicidal efficacy, Digitaria sanguinalis

>>> recorded_measurement("Cc1ccc(C2=NOC(C)(COCc3c(F)cccc3F)C2)cc1 (centres unmarked) [Reference G]")
4
>>> recorded_measurement("CC1(COCc2c(F)cccc2F)CC(c2ccccc2C(F)(F)F)=NO1 (centres unmarked) [Compound 5]")
10
>>> recorded_measurement("Cc1ccccc1C1=NOC(C)(COCc2c(F)cccc2F)C1 (centres unmarked) [Compound 1]")
10
>>> recorded_measurement("CC1(COCc2c(F)cccc2Cl)CC(c2ccccc2)=NO1 (centres unmarked) [Reference H]")
0
>>> recorded_measurement("CC1(COCc2c(F)cccc2F)CC(c2ccccc2F)=NO1 (centres unmarked) [Compound 4]")
10

====

System: Poa annua
Assay: Post-emergence treatment, herbicidal efficacy on annual bluegrass
Assay type: in vivo
Conditions: post-emergence, 1,000 g/ha, 4 weeks after spraying, scale 0 to 10
The entries below come with measured Herbicidal efficacy, Poa annua values attached.
Measurement Type: Herbicidal efficacy, Poa annua

>>> recorded_measurement("Cc1ccccc1C1=NOC(C)(COCc2ccccc2)C1 (stereo not drawn) [Reference C]")
4
>>> recorded_measurement("Cc1ccccc1C1=NOC(C)(COCc2c(F)cccc2F)C1 (stereo not drawn) [Compound 1]")
10
>>> recorded_measurement("Cc1ccc(C2=NOC(C)(COCc3c(F)cccc3F)C2)cc1 (stereo not drawn) [Reference G]")
6
>>> recorded_measurement("CC1(COCc2c(F)cccc2Cl)CC(c2ccccc2)=NO1 (stereo not drawn) [Reference H]")
4
>>> recorded_measurement("CC1(COCc2ccccc2F)CC(c2ccccc2[N+](=O)[O-])=NO1 (stereo not drawn) [Reference A]")
5
>>> recorded_measurement("Cc1ccccc1C1=NOC(C)(COCc2c(F)cccc2Cl)C1 (stereo not drawn) [Reference E]")
7
>>> recorded_measurement("CC1(COCc2c(F)cccc2F)CC(c2ccccc2C(F)(F)F)=NO1 (stereo not drawn) [Compound 5]")
10
>>> recorded_measurement("Cc1ccccc1C1=NOC(C)(COCc2ccccc2F)C1 (stereo not drawn) [Reference D]")
5
>>> recorded_measurement("CC1(COCc2c(F)cccc2F)CC(c2ccccc2Cl)=NO1 (stereo not drawn) [Compound 2]")
10
>>> recorded_measurement("CC1(COCc2c(F)cccc2Cl)CC(c2ccccc2Cl)=NO1 (stereo not drawn) [Reference B]")
6
>>> recorded_measurement("CC1(COCc2c(F)cccc2F)CC(c2ccccc2F)=NO1 (stereo not drawn) [Compound 4]")
10
>>> recorded_measurement("Cc1cccc(C2=NOC(C)(COCc3c(F)cccc3F)C2)c1 (stereo not drawn) [Reference F]")
6

// provenance: patent US9439432B2
